# Experiment: Measurement of logP values by HPLC on reversed phase columns (EEC directive 79/831 Annex V.A8)
# Assay type: physicochemical
# Condition parameters: pH 2.7
Measure: logP

Molecule | logP
CN(C)C(=O)c1cc(-c2ncnc(Nc3ccc(F)c(Cl)c3)n2)ccn1 [Example B205] | 2.47
CNN=C(C)c1cc(-c2ncnc(Nc3cccc(Cl)c3)n2)ccn1 [Example B75] | 2.27
CCCN(C)C(=S)c1cc(-c2ncnc(Nc3cccc(OC)c3)n2)ccn1 [Example B283] | 3.15
COC(=O)c1cc(-c2ncnc(Nc3ccc(F)c(OC)c3)n2)ccn1 [B416] | 2.43
CCN(C)C(=O)c1cc(-c2ncnc(Nc3cccc(C(F)(F)F)c3)n2)ccn1 [Example B256] | 2.86
O=C(O)c1cc(-c2ncnc(Nc3cccc(Cl)c3)n2)ccn1 [B404] | 2.11

1. CCCN(C)C(=O)c1cc(Nc2nccc(-c3ccnc(C(=O)N(C)CCC)c3)n2)ccn1 [Example A14]
2. CC(C)N(C)C(=O)c1cc(-c2ncnc(Nc3ccsc3)n2)ccn1 [Example C20]
3. CCN(C)C(=S)c1cc(-c2ncnc(Nc3cccc(OC(F)(F)C(F)F)c3)n2)ccn1 [Example B261]
Arrange items by their logP values in increasing order. Rank them, then answer with their labels in that order.
1, 2, 3
(1: 1.59, 2: 2.37, 3: 3.41)

----------
# Experiment: Measurement of logP values by HPLC on reversed phase columns (EEC directive 79/831 Annex V.A8)
# Format: physicochemical
# Condition parameters: pH 2.7
Measure: logP

Compound | Value
CCCN(C)C(=O)c1cc(-c2ncnc(Nc3cccc(Cl)c3)n2)ccn1 [Example B132] | 3.06
CCCN(C)C(=O)c1cc(-c2ncnc(Nc3cccc(NC(C)=O)c3)n2)ccn1 [Example B305] | 1.87
CN(C)C(=O)c1cc(-c2ncnc(Nc3cccc(C(F)F)c3)n2)ccn1 [Example B288] | 2.17
COCC(C1CC1)N(C)C(=O)c1cc(-c2ncnc(Nc3cccc(OC(F)F)c3)n2)ccn1 (centres unmarked) [Example B303] | 2.94
CCN(CC)C(=S)c1cc(-c2ncnc(Nc3cccc(C(F)(F)F)c3)n2)ccn1 [Example B326] | 3.78

A. CN(CC1CCCO1)C(=O)c1cc(Nc2nccc(-c3ccnc(C(=O)N(C)CC4CCCO4)c3)n2)ccn1 (centres unmarked) [Example A16]
B. CC1CCN(C(=O)c2cc(-c3ncnc(Nc4cccc(Cl)c4)n3)ccn2)CC1 [Example B131]
Decide: A or B , by lowest recorded logP. Give the label of your selection.
A

----------
# Experiment: Measurement of logP values by HPLC on reversed phase columns (EEC directive 79/831 Annex V.A8)
# Assay type: physicochemical
# Condition parameters: pH 2.7
Measure: logP

Guide cases for logP, answers given:
Mol smiles | Value
CCN(C)C(=O)c1cc(-c2ncnc(Nc3cccc(Cl)c3)n2)ccn1 | 2.69
CC(C)C(=O)O/N=C(/N)c1cc(-c2ncnc(Nc3cccc(Cl)c3)n2)ccn1 | 3.69
CN(CC1CC1)C(=O)c1cc(-c2ncnc(Nc3ccsc3)n2)ccn1 | 2.53
O=C(c1cc(-c2ccnc(Nc3ccnc(Cl)c3)n2)ccn1)N1CCOCC1 | 1.69

1. CN(C)C(=O)c1cc(-c2ncnc(Nc3ccc(F)c(F)c3)n2)ccn1
2. Cc1ccc(Nc2ncnc(-c3ccnc(C(=O)N(C)CC(C)C)c3)n2)cc1Cl
# min-compare on logP between 1 and 2 Pick one; state its label.
1

Reference source for all entries: patent US20110218188A1
